src = PubChem BioAssay

Tested on: Aerobactin synthetase IucA (Klebsiella pneumoniae, hypervirulent)
METHOD_DESCRIPTION: IucA enzyme inhibition, biochemical, LOPAC library, absorbance readout (AID 1346212);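 note: 100% = no compound wells and 0% = no enzyme wells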
CONDITIONS: IucA enzyme assay, absorbance (OD) readout; stronger effect = lower value; concentration not given here
Form field: remaining activity (one value per entry).
PROPERTY_LABEL: remaining activity (%)

>>> value_measured("CCN(CC)CC(=O)Nc1c(C)cccc1C")
109
>>> value_measured("c1ccc2nc(N3CCNCC3)ccc2c1")
114
>>> value_measured("Clc1ccc(C(c2ccccc2Cl)C(Cl)Cl)cc1 (configuration not stated)")
111
>>> value_measured("O=C(O)c1cc(=O)cc(C(=O)O)[nH]1")
122
>>> value_measured("CN1C2CCC1CC(OC(c1ccccc1)c1ccccc1N)C2 (configuration not stated)")
119
>>> value_measured("NC/C=C\\C(=O)O")
124
>>> value_measured("Nc1nc(Cl)nc2c1ncn2[C@@H]1O[C@H](CO)[C@@H](O)[C@H]1O")
115

* * *

# z-score per entry
METHOD_DESCRIPTION: survival rescue of mitochondrial mutant cells in low glucose, primary screen, MELAS cybrids, Rieske KO mouse fibroblasts, CellTiter-Glo (AID 1508586);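 note: z relative to plate mean and SD of compound and empty wells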
CONDITIONS: Rieske KO mouse fibroblast survival, CellTiter-Glo 72 h
PROPERTY_LABEL: z-score

>>> value_measured("O=c1[nH]c2ccc(Cl)cc2c(NC2CN3CCC2CC3)c1-c1nc2ccccc2[nH]1 (stereo not given)")
-3.49
>>> value_measured("COc1cccc2ncn(Cc3cn4ccccc4n3)c(=O)c12")
-0.636
>>> value_measured("CCOc1ccccc1-n1c(C(C)N2CCN(C(=O)COc3ccc(Cl)cc3)CC2)nc2ccccc2c1=O (stereo not given)")
1.03
>>> value_measured("C=C1CC[C@@]2(O)[C@H]3Cc4ccc(O)c5c4[C@@]2(CCN3CC2CC2)[C@H]1O5")
-0.2
>>> value_measured("C[C@]12CC[C@@H]3c4ccc(OC(=O)N(CCCl)CCCl)cc4CC[C@H]3[C@@H]1CC[C@@H]2O")
0.249
>>> value_measured("Cc1c(N)nc(C(CC(N)=O)NCC(N)C(N)=O)nc1C(=O)NC(C(=O)NC(C)C(O)C(C)C(=O)NC(C(=O)NCCc1nc(-c2nc(C(=O)NCCC[S+](C)C)cs2)cs1)C(C)O)C(OC1OC(CO)C(O)C(O)[C@H]1OC1OC(CO)C(O)C(OC(N)=O)C1O)c1cnc[nH]1 (stereo not given in full)")
-0.104
>>> value_measured("CC(C)C[C@H](CN)CC(=O)O")
0.159
>>> value_measured("Cc1ccccc1-n1c(Cn2ncc3c(N)ncnc32)nc2cccc(C)c2c1=O")
0.957
>>> value_measured("CN1CCC(c2c[nH]c3ccc(O)cc23)CC1")
-0.062
>>> value_measured("O=C(O)Cc1ccccc1")
0.0978
>>> value_measured("C[C@@H]1C[C@@H]([C@H](O)CC2CC(=O)NC(=O)C2)C(=O)[C@@H](C)C1")
4.57
>>> value_measured("C[N+]1([O-])[C@@H]2CC(OC(=O)[C@H](CO)c3ccccc3)C[C@H]1[C@@H]1O[C@@H]12 (stereo not given in full)")
-0.531
>>> value_measured("CCCCCCCCCCCCCCCC[N+](C)(C)C")
-0.288
>>> value_measured("CC(C)(N)Cc1ccccc1")
-0.552
>>> value_measured("CCOC(=O)c1cncn1C(C)c1ccccc1 (stereo not given)")
0.585
>>> value_measured("CC1CCCC=C[C@@H]2CC(O)C[C@H]2C(O)C=CC(=O)O1 (stereo not given in full)")
-2.64
>>> value_measured("CNCC(=O)c1ccc(O)c(O)c1")
-0.269
>>> value_measured("CC(=O)OCC(=O)[C@H]1CC[C@H]2[C@@H]3CC[C@H]4C[C@H](O)CC[C@]4(C)[C@H]3C(=O)C[C@]12C")
0.294
>>> value_measured("CN1C[C@H](CNC(=O)OCc2ccccc2)C[C@@H]2c3cccc4c3c(cn4C)C[C@H]21")
0.114
>>> value_measured("C=CC[C@@]1(O)CC[C@H]2[C@@H]3CCC4=CC(=O)CCC4=C3C=C[C@@]21C")
-0.164
